Cited source: PubChem BioAssay (EPA / NIEHS)

Read-out: CYP4A11 (gene 1579)
protocol.notes: LTEA_HepaRG_CYP4A11: Life Technologies and Expression Analysis (LTEA) Assay for CYP4A11 using HepaRG (AID 2283486)
condition.description: mRNA level, 48 h; actives raise or lower the signal
Activity calls are given as the source filed them. How the source made its calls: active means hit-call score of the fitted dose curve at least 0.9, where 1 is the maximum; inactive means score below 0.9.
API: response.call in active, inactive

CC(C)C1(C)N=C(c2ncccc2C(=O)O)NC1=O (configuration not stated)
inactive
CCN(CC)c1nc(C)cc(OP(=S)(OC)OC)n1
inactive

What is the recorded call for this molecule in the test? CCOC(=O)C(C)OC(=O)c1cc(Oc2ccc(C(F)(F)F)cc2Cl)ccc1[N+](=O)[O-] (configuration not stated)
active

----------
protocol.notes: ATG_NRF2_ARE_CIS: Attagene CIS-FACTORIAL HepG2 Assay for human Nuclear Factor Erythroid 2 Related Factor 2 (NFR2) response to Antioxidant Response Elements (ARE) (AID 2282992)
condition.description: HepG2 Attagene ARE/NRF2 reporter, transcription factor activity; actives raise or lower the signal
Activity calls are given as the source filed them. How the source made its calls: active means hit-call score of the fitted dose curve at least 0.9, where 1 is the maximum; inactive means score below 0.9.
Your reply should match one of these outcome classes. active, inactive

C=CCOC(=O)C(C)(C)OC(=O)c1cc(-n2c(=O)cc(C(F)(F)F)n(C)c2=O)ccc1Cl
active

In this assay, the call recorded for "CC(C)N1C(=O)c2ccccc2NS1(=O)=O" was what?
active

Kindly provide the recorded test outcome for the following compound: "Clc1nc(Cl)nc(Nc2ccccc2Cl)n1"
active

What classification did "CCOP(=S)(OCC)Oc1nc(Cl)n(C(C)C)n1" end up with in this test?
active

Can you look up the reported call for "Cc1nc(N(C)C)nc(OC(=O)N(C)C)c1C" for me?
inactive

I'd appreciate the recorded outcome for "COC(=O)NC(=S)Nc1ccccc1NC(=S)NC(=O)OC" from this test.
active

----------
protocol.notes: APR_HepG2_MicrotubuleCSK_72hr: Apredica 72-hour HepG2 Assay for Microtubule CSK Stabilty (AID 2282919)
condition.description: HepG2 microtubule cytoskeleton, high-content imaging, actives raise or lower the signal
The source made the active and inactive calls. How the source made its calls: active means hit-call score of the fitted dose curve at least 0.9, where 1 is the maximum; inactive means score below 0.9.
Please reply with one of these outcomes: T = active, F = inactive

Record lookup: outcome of this test for CCCCC(C#N)(Cn1cncn1)c1ccc(Cl)cc1 (stereo unspecified) ?
F

State the result this test recorded for CC(C)C1(C)N=C(c2ncccc2C(=O)O)NC1=O (stereo unspecified) .
F

----------
protocol.notes: CCTE_Shafer_MEA_acute_burst_duration_mean: CCTE's Neural Acute Assay for Mean Burst Duration, Shafer Lab (AID 2284014);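 further: hits are decreases in mean burst duration relative to DMSO controls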
The source made the active and inactive calls. Rule for the calls: active = hit-call score of the fitted dose curve at least 0.9, where 1 is the maximum; inactive = score below 0.9.
Outcome field: choose from True (active), False (inactive)

Fill in: this test's call for COCC(=O)N(c1c(C)cccc1C)C(C)C(=O)OC (stereo not given) is ___
False

For this compound, state the assay outcome: "COP(=S)(OC)SCn1nnc2ccccc2c1=O"
False

I'd appreciate the recorded outcome for "Nc1c(Cl)c(F)nc(OCC(=O)O)c1Cl" from this test.
False

In this assay, the call recorded for "CCOc1nc(F)cc2nc(S(=O)(=O)Nc3c(Cl)cccc3Cl)nn12" was what?
False

Recorded test call requested for CCCCC(O)(Cn1cncn1)c1ccc(Cl)cc1Cl (stereo not given)
False

----------
Tested on: zebrafish Estrogen Receptor (ESR2A), gene 317734
protocol.notes: ATG_zfER2a_XSP1: Attagene TRANS-FACTORIAL Multi-Species (XSP1) HepG2 Assay for zebrafish Estrogen Receptor (ESR2A) (AID 2283778)
Inconclusive results are not listed. The source made the active and inactive calls. The calls were made as follows: active = hit-call score of the fitted dose curve at least 0.9, where 1 is the maximum; inconclusive = response in the unintended direction; inactive = score below 0.9.
quantity.measured: outcome

CC1(C)CCC(=Cc2ccc(Cl)cc2)C1(O)Cn1cncn1 (stereo not drawn)
inactive
CC(C)NC(=O)N1CC(=O)N(c2cc(Cl)cc(Cl)c2)C1=O
inactive
COP(=S)(OC)Oc1ccc([N+](=O)[O-])c(C)c1
inactive

----------
Read-out: Transforming Growth Factor (TGFA), TGFA (gene 7039)
protocol.notes: LTEA_HepaRG_TGFA: Life Technologies and Expression Analysis (LTEA) Assay for Transforming Growth Factor (TGFA) using HepaRG (AID 2283532)
condition.description: mRNA level, 48 h; actives raise or lower the signal
Procedure: LTEA_HepaRG is a cell based, multiplexed-readout assay that uses HepaRG, a human liver cell line, with measurements taken at 48 hours after chemical dosing on a 96-well plate.LTEA_HepaRG_TGFA is one of 102 assay component(s) measured in the LTEA HepaRG cell culture assay. It is a marker of Cell proliferation, survival, death.Data from the assay component LTEA_HepaRG_TGFA was analyzed into 1 endpoint. […]
Calls of active or inactive are those of the source. The calls were made as follows: active = hit-call score of the fitted dose curve at least 0.9, where 1 is the maximum; inactive = score below 0.9.
Mark one answer only. Choices: active, inactive

CC(C)NC(=O)N1CC(=O)N(c2cc(Cl)cc(Cl)c2)C1=O
inactive
COC(=O)NC(=S)Nc1ccccc1NC(=S)NC(=O)OC
inactive
CCCC(=NOCC)C1=C(O)CC(CC(C)SCC)CC1=O (stereo not given)
inactive
CCCCC(O)(Cn1cncn1)c1ccc(Cl)cc1Cl (stereo not given)
active

Next item in the queue.
Name the outcome recorded for CCC(C)n1c(=O)[nH]c(C)c(Br)c1=O (stereo not given) in the assay.
inactive

----------
Read-out: Cytochrome P450 7A1 (Homo sapiens)
protocol.notes: LTEA_HepaRG_CYP7A1: Life Technologies and Expression Analysis (LTEA) Assay for Cytochrome P450 7A1 (CYP7A1) using HepaRG (AID 2283496)
condition.description: mRNA level, 48 h; actives raise or lower the signal
Active and inactive are the calls of the source. How the source made its calls: active means hit-call score of the fitted dose curve at least 0.9, where 1 is the maximum; inactive means score below 0.9.
Returns: one label drawn from active, inactive

CNC(=O)Oc1cccc2ccccc12
inactive
CCNP(=S)(OC)O/C(C)=C/C(=O)OC(C)C (stereo unspecified)
inactive
C=CCOC(=O)C(C)(C)OC(=O)c1cc(-n2c(=O)cc(C(F)(F)F)n(C)c2=O)ccc1Cl
inactive
CC(C)C1(C)N=C(c2ncccc2C(=O)O)NC1=O (stereo unspecified)
inactive
CO/N=C(/C1=NOCCO1)c1ccccc1Oc1ncnc(Oc2ccccc2Cl)c1F
active
COCc1cnc(C2=NC(C)(C(C)C)C(=O)N2)c(C(=O)O)c1 (stereo unspecified)
inactive
N#Cc1c[nH]cc1-c1cccc2c1OC(F)(F)O2
active
COC(=O)N(C(=O)N1CO[C@@]2(C(=O)OC)Cc3cc(Cl)ccc3C2=N1)c1ccc(OC(F)(F)F)cc1
active

Check the results log: what was the call for CCCC(=NOCC)C1=C(O)CC(CC(C)SCC)CC1=O (stereo unspecified) ?
inactive

Can you look up the reported call for Cc1cnc(C2=NC(C)(C(C)C)C(=O)N2)c(C(=O)O)c1 (stereo unspecified) for me?
inactive

Dear colleague, could you share the recorded outcome for "CCOP(=S)(OCC)Oc1nc(Cl)n(C(C)C)n1" when you have a moment?
active

Hello, I am checking results. What call was entered for "CN/C(=N\[N+](=O)[O-])NCc1cnc(Cl)s1" ?
active

In this assay, the call recorded for "CC(C)N1C(=O)N(c2ccccc2)CSC1=NC(C)(C)C" was what?
active

Assay result, entry "CNC(=O)N(C)c1nnc(C(C)(C)C)s1" — outcome?
inactive

What call does the record list for "CC(C)Nc1nc(Cl)nc(NC(C)C)n1" ?
active

In this assay, the call recorded for "COC(=O)NS(=O)(=O)c1ccc(N)cc1" was what?
inactive

----------
protocol.notes: BSK_SAg_Proliferation: Cell Proliferation Assessment in the BioMAP Diversity Plus: SAg Assay (AID 2283095);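 further: relative cell number as total protein by SRB absorbance in sub-confluent culture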
condition.description: primary human HUVEC with PBMC
Calls of active or inactive are those of the source. The calls were made as follows: active = hit-call score of the fitted dose curve at least 0.9, where 1 is the maximum; inactive = score below 0.9.
Outcomes you can answer with include only these: active, inactive

Before answering, review these 5 worked examples.
Cc1c(COC(=O)[C@@H]2[C@H](/C=C(\Cl)C(F)(F)F)C2(C)C)cccc1-c1ccccc1
active
Nc1c(Cl)c(Cl)nc(C(=O)O)c1Cl
inactive
Clc1cccc(C(Cl)(Cl)Cl)n1
inactive
COC(=O)N(C(=O)N1CO[C@@]2(C(=O)OC)Cc3cc(Cl)ccc3C2=N1)c1ccc(OC(F)(F)F)cc1
active
CCC(C)n1c(=O)[nH]c(C)c(Br)c1=O (centres undefined)
inactive

Let's switch to this compound now.
Each compound tested received a call. Report the one for "Cn1c(-c2ccccc2)cc(-c2ccccc2)[n+]1C" .
active

----------
Read-out: xenobiotic metabolism (CYP1A2), CYP1A2 (gene 1544)
protocol.notes: CLD_CYP1A2_24hr: CellzDirect (CLD) Gene Expression Assay for xenobiotic metabolism (CYP1A2) at 24 hours (AID 2283683)
Results filed as inconclusive are left out. The source made the active and inactive calls. The calls were made as follows: active = hit-call score of the fitted dose curve at least 0.9, where 1 is the maximum; inconclusive = response in the unintended direction; inactive = score below 0.9.
Reply using exactly one outcome from active, inactive

CCNP(=S)(OC)O/C(C)=C/C(=O)OC(C)C (stereo not given)
active

Could you please tell me the result logged for "CNC(=O)Oc1cccc2ccccc12" in this assay?
active

----------
Read-out: solute carrier (SLC22A1), SLC22A1 (gene 6580)
protocol.notes: LTEA_HepaRG_SLC22A1: Life Technologies and Expression Analysis (LTEA) Assay for solute carrier (SLC22A1) using HepaRG (AID 2283524);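 on AC50: differentiated human HepaRG liver cells in serum-free induction medium; TaqMan qRT-PCR normalized to ACTB GAPDH and POLR2A housekeeping genes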
condition.description: mRNA level, 48 h; actives raise or lower the signal
Calls of active or inactive are those of the source. How the source made its calls: active means hit-call score of the fitted dose curve at least 0.9, where 1 is the maximum; inactive means score below 0.9.
quantity.measured: AC50

Some entries whose results are on file:
CC1(C)CON(Cc2ccccc2Cl)C1=O
inactive
CCOP(=O)(OCC)Oc1nc(Cl)c(Cl)cc1Cl
92.2 µM (active)
Clc1nc(Cl)nc(Nc2ccccc2Cl)n1
inactive
O=C(O)c1c(Cl)ccc2cc(Cl)cnc12
inactive
Clc1cccc(C(Cl)(Cl)Cl)n1
inactive
CCOC(=O)C(C)OC(=O)c1cc(Oc2ccc(C(F)(F)F)cc2Cl)ccc1[N+](=O)[O-] (stereo unspecified)
inactive
COP(=S)(OC)SCn1nnc2ccccc2c1=O
inactive
CCOP(=S)(OCC)Oc1nc(Cl)n(C(C)C)n1
12.2 µM (active)

Which AC50 is reported for this compound? "CN=C=S"
inactive

Tell me the measured AC50 of "CCN(CC)c1nc(C)cc(OP(=S)(OC)OC)n1" , please.
inactive

Consider the compound "COC(=O)NS(=O)(=O)c1ccc(N)cc1" and give its measured AC50.
inactive
